Tested on: ICS
Experiment: qHTS profiling for inhibitors of Plasmodium falciparum proliferation (AID 504749); note: nearly all actives have a fitted effect of over 60% in size
Settings: P. falciparum in erythrocytes, SYBR Green DNA, 72 h; series mostly up to 28.7 µM
Records with an inconclusive call do not appear. Calls of active or inactive are those of the source. Calls come from the whole dose curve; as a rule, active = well fitted inhibition curve with a large enough effect; inconclusive = small, poorly fitted or top-dose-only effect; inactive = flat fitted curve, though single readings scatter.
Use one of these outcomes when replying: T = active, F = inactive

In: Per the records of this test, what outcome belongs to `NS(=O)(=O)c1cc(C(=O)O)cc(N2CCCC2)c1Oc1ccccc1` ?
Out: F

====

Test system: TAB109
Experiment: qHTS profiling for inhibitors of Plasmodium falciparum proliferation (AID 504749); note: nearly all actives have a fitted effect of over 60% in size
Conditions: P. falciparum in erythrocytes, SYBR Green DNA, 72 h; series mostly up to 28.7 µM
Results filed as inconclusive are left out. Activity calls are given as the source filed them. The call rests on the fitted dose curve; in most records, active means well fitted inhibition curve with a large enough effect; inconclusive means small, poorly fitted or top-dose-only effect; inactive means flat fitted curve, though single readings scatter.
Use one of these outcomes when replying: active, inactive

[
  {
    "compound": "O=C1C(CCS(=O)c2ccccc2)C(=O)N(c2ccccc2)N1c1ccccc1 (stereo unspecified)",
    "classification": "inactive"
  },
  {
    "compound": "O=C(CN1CCN(Cc2ccc3c(c2)OCO3)CC1)N1c2ccccc2Sc2ccccc21",
    "classification": "active"
  }
]

In: Per the records of this test, what outcome belongs to `COc1cc([C@H]2Oc3cc([C@H]4Oc5cc(O)cc(O)c5C(=O)[C@@H]4O)ccc3O[C@@H]2CO)ccc1O` ?
Out: inactive

In: Per the records of this test, what outcome belongs to `COc1ccc2c(c1)c1c3n2CCN(C)C3=NCC1` ?
Out: inactive

In: Per the records of this test, what outcome belongs to `CNCCCCOc1ccccc1Cc1ccccc1` ?
Out: active

In: Per the records of this test, what outcome belongs to `O=C(O)c1ccc(S(=O)(=O)N(Cl)Cl)cc1` ?
Out: inactive

In: Per the records of this test, what outcome belongs to `CCCCNc1ccc(C(=O)OCCOCCOCCOCCOCCOCCOCCOCCOCCOC)cc1` ?
Out: inactive

In: Per the records of this test, what outcome belongs to `Cc1ccc(S(=O)(=O)NC(=O)NC2CCCC2)cc1` ?
Out: inactive

In: Per the records of this test, what outcome belongs to `Nc1nc(N)c(-c2ccccc2)s1` ?
Out: inactive

In: Per the records of this test, what outcome belongs to `CCc1oc2ccccc2c1C(=O)c1cc(Br)c(O)c(Br)c1` ?
Out: inactive

In: Per the records of this test, what outcome belongs to `CCOc1ccccc1OCCN[C@H](C)Cc1ccc(OC)c(S(N)(=O)=O)c1` ?
Out: inactive

In: Per the records of this test, what outcome belongs to `CC(=O)Oc1ccc(C)cc1` ?
Out: inactive

In: Per the records of this test, what outcome belongs to `COc1ccccc1N1CCN(CCCCNC(=O)c2ccc(-c3ccc(C(C)=O)cc3)cc2)CC1` ?
Out: inactive

In: Per the records of this test, what outcome belongs to `NCCNC(=O)c1ccc(Cl)cn1` ?
Out: inactive

In: Per the records of this test, what outcome belongs to `C#C[C@]1(O)CC[C@H]2[C@@H]3CCC4=Cc5oncc5C[C@]4(C)[C@H]3CC[C@@]21C` ?
Out: inactive

In: Per the records of this test, what outcome belongs to Cc1cc(C)cc(OCC2CNC(=O)O2)c1 (stereo unspecified) ?
Out: inactive

In: Per the records of this test, what outcome belongs to `CC1=C(C(=O)O)N2C(=O)[C@@H](NC(=O)[C@H](N)c3ccccc3)[C@H]2SC1` ?
Out: inactive

In: Per the records of this test, what outcome belongs to `CCN(CC)CCNC(=O)c1cc(Br)c(N)cc1OC` ?
Out: inactive
